These measurements were taken from patent US9555038B2.

tested on: HCV replicon 1AQ30D; assay: Cell-based HCV Replicon Assay B, replicon 1AQ30D; settings: Hepatitis C virus, read-out: 1A Q30D IC50 (nM), replicon 1AQ30D
VALUE TYPE: IC50 (nM)
Kindly provide the numeric value in nM only, without the unit symbol.

molecule="COC(=O)NC(C(=O)N1CCC[C@H]1c1ncc(-c2ccc3c(c2)cc2n3C(c3cnc(C4CC4)s3)Oc3cc(-c4cnc([C@@H]5CCCN5C(=O)[C@@H](NC(=O)OC)C(C)C)[nH]4)cc(C)c3-2)[nH]1)C1C[C@@H](C)O[C@@H](C)C1 (single isomer, unassigned)" unit_descriptor=nM value=0.499
molecule="CCc1ncc(C2Oc3cc(-c4cnc([C@@H]5CCCN5C(=O)[C@@H](NC(=O)OC)C(C)C)[nH]4)cc(F)c3-c3cc4cc(-c5cnc([C@@H]6CCCN6C(=O)C(NC(=O)OC)C6C[C@@H](C)O[C@@H](C)C6)[nH]5)ccc4n32)s1 (single isomer, unassigned)" unit_descriptor=nM value=0.038
molecule="COC(=O)NC(C(=O)N1CCC[C@H]1c1ncc(-c2ccc3c(c2)cc2n3C(c3cnc(C4CCC4)s3)Oc3cc(-c4cnc([C@@H]5CCCN5C(=O)[C@@H](NC(=O)OC)C(C)C)[nH]4)cc(C)c3-2)[nH]1)C1C[C@@H](C)O[C@@H](C)C1 (single isomer, unassigned)" unit_descriptor=nM value=0.096

Now take the following molecule into account.
Consider COC(=O)NC(C(=O)N1CCC[C@H]1c1ncc(-c2ccc3c(c2)cc2n3C(c3cnc(C4CC4)s3)Oc3cc(-c4cnc([C@@H]5CCCN5C(=O)[C@@H](NC(=O)OC)C(C)C)[nH]4)cc(C)c3-2)[nH]1)C1CCOC(C)(C)C1 (single isomer, unassigned) . Its measured IC50 is 0.44

----------
Test system: HCV replicon 1AY93H
Test: Cell-based HCV Replicon Assay A, replicon 1AY93H
Details: read-out: 1A Y93H IC50, replicon 1AY93H
Procedure: To measure cell-based anti-HCV activity of compounds of the present invention, two complimentary assays were employed using various replicons. […] The replicon RNA level was measured using real time PCR (TaqMan® EZ RT-PCR, Applied Biosystems 403028) with the following primers and probes: […] The amount of HCV replicon RNA per cell is quantified using a linear regression curve for a known nanogram (ng) amount of HCV replicon total RNA. […]
VALUE TYPE: IC50 (pM)
Kindly provide the numeric value in pM only, without the unit symbol.

Please review the entries below; each comes with its answer.
compound="COC(=O)N[C@H](C(=O)N1CCC[C@H]1c1ncc(-c2cc(F)c3c(c2)OC(c2cnc(-c4ccc(OC)cc4)s2)n2c-3cc3cc(-c4cnc([C@@H]5CCCN5C(=O)[C@@H](NC(=O)OC)C(C)C)[nH]4)ccc32)[nH]1)C(C)C (single isomer, unassigned) [Compound 45]" value_type=IC50 value=6
compound="COC(=O)NC(C(=O)N1CCC[C@H]1c1ncc(-c2ccc3c(c2)cc2n3C(c3cnc(C4(C)CC4)s3)Oc3cc(-c4cnc([C@@H]5CCCN5C(=O)[C@@H](NC(=O)OC)C(C)C)[nH]4)cc(F)c3-2)[nH]1)C1CCOC(C)(C)C1 (single isomer, unassigned) [Compound 460]" value_type=IC50 value=288
compound="COC(=O)NC(C(=O)N1[C@@H]2C[C@@H]2C[C@H]1c1ncc(-c2ccc3c(c2)cc2n3C(c3cnc(C(C)C)s3)Oc3cc(-c4cnc([C@@H]5CCCN5C(=O)[C@@H](NC(=O)OC)C(C)C)[nH]4)cc(F)c3-2)[nH]1)C1CCOC(C)(C)C1 (single isomer, unassigned) [Compound 69]" value_type=IC50 value=2870

# lookup: CCCOCc1ncc(C2Oc3cc(-c4cnc([C@@H]5CCCN5C(=O)[C@@H](NC(=O)OC)C(C)C)[nH]4)cc(F)c3-c3cc4cc(-c5cnc([C@@H]6CCCN6C(=O)[C@@H](NC(=O)OC)C(C)C)[nH]5)ccc4n32)s1 (single isomer, unassigned) [Compound 499] on HCV replicon 1AY93H, IC50 = 223
